- Tested on: NCI-H292 lung cancer cells
- experiment: FDA drug screening, complete media vs cholesterol-free media with simvastatin (TABLE 2)
- Assay type: cell-based, human
- test_settings: complete media minus cholesterol-free media + simvastatin; >0 enhanced anti-cancer activity, about 0 neutral, <0 antagonist
Counter-ions that a name gives are not always drawn.
Quick rule for you: Difference at 0.04 or higher means TRUE, lower means FALSE.

# molecule, assigned_label
records = [
    ("O=C(C[S+]([O-])Cc1ccco1)NC/C=C\\COc1cc(CN2CCCCC2)ccn1 (centres unmarked)", "FALSE"),
    ("OCc1ccccc1", "TRUE"),
    ("CCCCc1oc2ccc(NS(C)(=O)=O)cc2c1C(=O)c1ccc(OCCCN(CCCC)CCCC)cc1 [Dronedarone (Hydrochloride)]", "TRUE"),
    ("CCCCOc1cc(C(=O)NCCN(CC)CC)c2ccccc2n1 [Dibucaine (hydrochloride)]", "TRUE"),
    ("CCCCCCOC(=O)N=C(N)c1ccc(NCc2nc3cc(C(=O)N(CCC(=O)OCC)c4ccccn4)ccc3n2C)cc1 [Dabigatran etexilate]", "FALSE"),
    ("CNC[C@H](O)c1cccc(O)c1", "TRUE"),
]

---

- Test system: NCI-H292 lung cancer cells
- experiment: FDA drug screening, complete media vs cholesterol-free media with simvastatin (TABLE 2)
- Type: cell-based, human
- test_settings: NCI-H292 cells, FDA drug library screen, complete media
Where a name gives a salt, the structure may show the parent alone.

# molecule, Complete Media
rows = [
    ("C[C@]12CC[C@@H]3c4ccc(O)cc4CC[C@H]3[C@@H]1CC[C@H]2O", 1.408),
    ("NCCC[C@H](N)C(=O)O", 1.47),
    ("CC(=O)OCC1=C(C(=O)O)N2C(=O)[C@@H](NC(=O)CSC(=NC(C)C)NC(C)C)[C@H]2SC1", 0.833),
    ("CC[C@@]1(O)C(=O)OCc2c1cc1n(c2=O)Cc2cc3cc(O)ccc3nc2-1 [(S)-10-Hydroxycamptothecin]", 0.138),
    ("CCC(=O)NCC[C@@H]1CCc2ccc3c(c21)CCO3", 1.318),
    ("FC(F)(F)c1ccc(CNc2ccc(Cc3c[nH]c4ncc(Cl)cc34)cn2)cn1 [Pexidartinib (hydrochloride)]", 1.002),
    ("CN1CCN(c2c(F)cc3c(=O)c(C(=O)O)cn4c3c2SCC4)CC1 [Rufloxacin hydrochloride]", 1.098),
    ("CC(CCc1ccc(O)cc1)NCCc1ccc(O)c(O)c1 (stereo not drawn) [Dobutamine (hydrochloride)]", 1.237),
    ("Nc1c2c(nc3ccccc13)CCCC2 [Tacrine (hydrochloride)]", 1.054),
    ("CC(=O)OCC(=O)[C@H]1CC[C@H]2[C@@H]3CCC4=CC(=O)CC[C@]4(C)[C@H]3CC[C@]12C [Deoxycorticosterone acetate]", 0.8887),
    ("COc1ccc2c(c1)N(C[C@H](C)CN(C)C)c1ccccc1S2", 1.084),
    ("CS(=O)(=O)c1ccc([C@@H](O)[C@@H](CF)NC(=O)C(Cl)Cl)cc1", 0.997),
    ("O=C1C2CC3CC1CC(O)(C3)C2", 1.085),
    ("Nc1ccc(S(=O)(=O)Nc2ccnn2-c2ccccc2)cc1", 1.024),
    ("CCN(CC)Cc1cc(Nc2ccnc3cc(Cl)ccc23)ccc1O [Amodiaquine (dihydrochloride dihydrate)]", 1.606),
    ("O=C(O)CCCCC1CCSS1 (stereo not drawn)", 1.004),
    ("CCCCCCCCCCCCCCCC[N+](C)(C)CCN(Cc1ccc(OC)cc1)c1ncccn1.[Br-] [Thonzonium (bromide)]", 0.5638),
    ("COc1ccccc1N1CCN(CCCNc2cc(=O)n(C)c(=O)n2C)CC1", 1.271),
]
